Target: Phosphatidylinositol 4,5-bisphosphate 3-kinase catalytic subunit beta isoform (Homo sapiens)
Sequence (P42338 whole entry, canonical isoform): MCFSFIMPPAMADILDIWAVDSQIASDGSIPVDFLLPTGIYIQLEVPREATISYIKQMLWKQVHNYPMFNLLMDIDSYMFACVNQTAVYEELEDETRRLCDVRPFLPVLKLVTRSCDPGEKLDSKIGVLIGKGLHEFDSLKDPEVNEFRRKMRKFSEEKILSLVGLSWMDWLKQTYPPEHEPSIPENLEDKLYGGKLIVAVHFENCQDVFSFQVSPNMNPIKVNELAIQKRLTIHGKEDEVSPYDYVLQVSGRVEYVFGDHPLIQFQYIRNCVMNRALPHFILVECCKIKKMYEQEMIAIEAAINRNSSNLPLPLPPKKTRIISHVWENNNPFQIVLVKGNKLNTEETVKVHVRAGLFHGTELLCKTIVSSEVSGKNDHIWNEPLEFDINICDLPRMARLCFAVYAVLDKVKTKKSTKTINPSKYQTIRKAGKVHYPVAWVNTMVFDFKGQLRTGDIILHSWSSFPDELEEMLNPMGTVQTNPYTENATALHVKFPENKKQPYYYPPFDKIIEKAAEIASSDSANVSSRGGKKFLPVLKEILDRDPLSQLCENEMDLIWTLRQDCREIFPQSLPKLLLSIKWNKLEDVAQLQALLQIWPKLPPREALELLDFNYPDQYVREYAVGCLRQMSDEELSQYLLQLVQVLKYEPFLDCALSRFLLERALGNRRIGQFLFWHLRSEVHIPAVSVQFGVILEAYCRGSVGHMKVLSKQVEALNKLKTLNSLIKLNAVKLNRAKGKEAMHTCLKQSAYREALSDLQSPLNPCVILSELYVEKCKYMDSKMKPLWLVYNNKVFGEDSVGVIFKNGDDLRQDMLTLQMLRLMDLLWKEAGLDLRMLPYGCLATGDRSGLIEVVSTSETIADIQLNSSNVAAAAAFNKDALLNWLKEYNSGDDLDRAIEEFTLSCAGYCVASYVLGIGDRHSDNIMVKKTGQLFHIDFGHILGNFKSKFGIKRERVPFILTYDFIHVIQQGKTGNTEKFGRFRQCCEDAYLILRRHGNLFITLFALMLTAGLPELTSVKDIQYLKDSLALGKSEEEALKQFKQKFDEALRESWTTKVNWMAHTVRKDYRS
Assay: Inhibition of PI3Kbeta (unknown origin)
metric: IC50 (µM)
Field: numeric (µM). Do not append units.

Note to self: IC50 recorded for COc1cc(N2CCOCC2)ccc1Nc1nc(NC2CCCCC2)c2cc[nH]c2n1 was 40.6

---

Tested on: MDA-MB-453
Assay: Antiproliferative activity against human MDA-MB-453 cells assessed as reduction in cell viability after 5 to 7 days by CellTiter 96 aqueous solution assay
Type: functional, cell-based
Can you tell me IC50 for the items I'm about to list?

Note to self: IC50 recorded for COc1ccccc1Nc1nc(Nc2ccccc2S(=O)(=O)C(C)C)c2cc[nH]c2n1 was > 10 µM

Note to self: IC50 recorded for COc1cc(N2CCC(O)CC2)ccc1Nc1cc(Nc2ccccc2S(=O)(=O)C(C)C)c2cc[nH]c2n1 was > 10 µM

Note to self: IC50 recorded for COc1cc(N2CCOCC2)ccc1Nc1nc(Nc2ccccc2S(=O)(=O)C(C)C)c2cc[nH]c2n1 was > 10 µM

Note to self: IC50 recorded for COc1cc(N2CCC(O)CC2)ccc1Nc1nc(Nc2ccccc2S(=O)(=O)C(C)C)c2cc[nH]c2n1 was 0.82 µM
